# TARGET_OR_TEST_SYSTEM: RanGTP-importin-beta complex (human Ran / KPNB1)
# EXPERIMENTAL_DETAILS: disruptors of RanGTP/KPNB1 binding – biochemical, FRET, CFP/YFP, cell-free homogeneous, confirmation (AID 2823)
# TEST_PARAMETERS: CFP-Ran/YFP-importin-beta FRET ratio
Activity calls are given as the source filed them. No rule for the calls is given here.
Hi! Could you answer with just one of these? class 1 = active, class 0 = inactive

For orientation, consider the following solved cases.
Data request: Record lookup: outcome of this test for O=C(NNc1c2ccccc2nc2ccccc12)c1cc2ccccc2cc1O ?
Data returned: class 0

Data request: Continue with CCOC(=O)c1oc2c(CN3CCN(CCO)CC3)c(O)c(CC)cc2c(=O)c1-c1nc2ccccc2s1
Data returned: class 1

Data request: Continue with O=c1[nH]c2c(s1)C(c1ccco1)C1C3CCC(C3)C1S2 (stereo unspecified)
Data returned: class 0

Data request: Continue with O=C1C(=O)N(CCS(=O)(=O)c2ccccc2)c2ccc(Cl)cc21
Data returned: class 0

New cases:
Data request: Record lookup: outcome of this test for COc1ccc(NS(=O)(=O)c2cc(NC(=O)c3cccs3)ccc2N2CCOCC2)cc1 ?
Data returned: class 0

Data request: Continue with O=C(N/N=C/c1ccc(-c2ccccc2Cl)o1)c1ccccc1
Data returned: class 0

Data request: Continue with Cc1cc(C)c[n+](-c2nc3ccccc3nc2[N-]S(=O)(=O)c2ccc(Br)s2)c1
Data returned: class 1

Data request: Continue with CC12OC1C1(O)CCCC1=CC2=O (stereo unspecified)
Data returned: class 0

Data request: Continue with COC(=O)C1=CN(CC2CCCO2)C=C(C(=O)OC)C1c1cccc(O)c1 (stereo unspecified)
Data returned: class 1

Data request: Continue with O=C(O)Cn1cc(/C=C2/SC(=O)N(CC(=O)N3CCCCCC3)C2=O)c2ccccc21
Data returned: class 1

Data request: Continue with COc1c2ccccc2nc2ccccc12
Data returned: class 1
